Target: T1, GST-tagged TRIB3 (human, UniProt Q96RU7 1-358)
T1 chain: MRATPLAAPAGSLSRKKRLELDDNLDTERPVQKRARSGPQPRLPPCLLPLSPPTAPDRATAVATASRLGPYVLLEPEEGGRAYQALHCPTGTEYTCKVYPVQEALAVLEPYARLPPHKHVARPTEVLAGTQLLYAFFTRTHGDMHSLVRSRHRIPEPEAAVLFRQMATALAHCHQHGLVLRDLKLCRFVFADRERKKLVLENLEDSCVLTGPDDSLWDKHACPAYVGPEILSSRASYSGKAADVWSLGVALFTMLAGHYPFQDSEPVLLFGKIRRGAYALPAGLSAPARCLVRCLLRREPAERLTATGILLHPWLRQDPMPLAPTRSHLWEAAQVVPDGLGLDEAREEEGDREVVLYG
Test: SPR
pKd: −log10 of the molar value. Where no end group is shown, it is not given here. [ ]: non-standard residue; d: D form.
measurement-label: pKd

{"binder": "[dK][dV][dV][dI][dL][dK][dK][dA][dT][dA][dY][dI][dL][dS][dV] [CM2 peptide]", "pKd": 5.09}

(I) [dE][dR][dQ][dR][dR][dN][dE][dL][dK][dR][dS][dF][dF][dA][dL][dR] [CM1 peptide]
(II) [dQ][dA][dE][dE][dQ][dK][dL][dI][dS][dE][dE][dD][dL][dL][dR] [CM3 peptide]
-- ask Identify the entry with the larger pKd. Options: I and II Which one? Tell me its label.
-- reply II
